TARGET_UNDER_TEST: PE-labeled human PD-L1-Ig binding to Jurkat cell line over-expressing human PD-1 (Jurkat-PD-1) (Homo sapiens)
Construct: expressed in transfected cells; host or cells: Jurkat
Sequence (Q15116 25-288): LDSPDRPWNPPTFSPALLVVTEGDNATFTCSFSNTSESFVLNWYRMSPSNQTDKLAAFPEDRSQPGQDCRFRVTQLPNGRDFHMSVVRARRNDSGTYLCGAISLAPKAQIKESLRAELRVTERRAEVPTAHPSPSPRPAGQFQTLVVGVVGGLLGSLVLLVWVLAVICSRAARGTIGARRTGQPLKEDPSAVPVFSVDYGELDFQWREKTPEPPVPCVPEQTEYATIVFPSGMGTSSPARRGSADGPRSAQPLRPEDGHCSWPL
PROTOCOL_TEXT: Jurkat-PD-1 Cell Binding High-Content Screening Assay (CBA): Method 1
MEASUREMENT_SETUP: Jurkat-hPD-1 cells, PE-labeled PD-L1-Ig 20 nM final; read-out: Jurkat HPDL1 PD1 IC50 (uM) (Method 1)
Bridge positions count the residues as written; N and C are the ends. Square brackets hold non-standard residues; d marks the D form. Peptide text beside a SMILES is read from it. * marks the point of attachment. ξ: configuration not given here. Bip = N[C@@H](Cc1ccc(-c2ccccc2)cc1)C(=O)O; Phe(3-Me) = Cc1cccc(C[C@H](N)C(=O)O)c1; Phe(2-F) = N[C@@H](Cc1ccccc1F)C(=O)O; Carboxymethyl = O=C(O)C*; NMeA = CN[C@@H](C)C(=O)O; Nle = CCCC[C@H](N)C(=O)O; Dap = NC[C@H](N)C(=O)O; ξC = NC(CS)C(=O)O
# IC50 per entry
Write the number in µM without appending the unit.

Record CCCC[C@@H]1NC(=O)[C@H](CC(N)=O)NC(=O)[C@@H](C)NC(=O)[C@H](C)N(C)C(=O)[C@H](C(C)C)NC(=O)[C@H](Cc2ccc(-c3ccccc3)cc2)NC(=O)[C@H](CC(C)C)NC(=O)[C@H](Cc2c[nH]c3ccccc23)NC(=O)[C@H](CC(=O)O)NC(=O)[C@H](Cc2ccc(O)cc2)NC(=O)[C@H](Cc2ccccc2)NC(=O)CSC[C@@H](C(=O)N[C@@H](C)C(N)=O)NC(=O)[C@H]([C@@H](C)O)NC(=O)[C@H](CCCNC(=N)N)NC1=O [Compound 1816] ({CH2CO}-FYDWL[Bip]V[NMeA][dA]N[Nle]RTCA-NH2; thioether N-14) . Reported IC50: 0.32

Value of IC50 reported for the molecule CC(C)C[C@@H]1NC(=O)[C@H](Cc2c[nH]c3ccccc23)NC(=O)[C@H](CC(=O)O)NC(=O)[C@H](Cc2ccccc2F)NC(=O)[C@H](Cc2ccccc2)NC(=O)CSC[C@@H](C(=O)N[C@@H](C)C(N)=O)NC(=O)[C@H](CO)NC(=O)[C@H](C(C)C)NC(=O)[C@H](CC(C)C)NC(=O)[C@H](CC(N)=O)NC(=O)[C@@H](C)NC(=O)[C@H](C)N(C)C(=O)[C@H](C(C)C)NC(=O)[C@H](Cc2ccc(-c3ccccc3)cc2)NC1=O [Compound 1735] ({CH2CO}-F[Phe(2-F)]DWL[Bip]V[NMeA][dA]NLVSCA-NH2; thioether N-14) is 0.02

The reported IC50 of the molecule CC(C)C[C@@H]1NC(=O)[C@H](Cc2c[nH]c3ccccc23)NC(=O)[C@H](CC(=O)O)NC(=O)[C@H](Cc2ccc(O)cc2)NC(=O)[C@H](Cc2ccccc2)NC(=O)CSC[C@@H](C(=O)NCC(N)=O)NC(=O)[C@H](CO)NC(=O)[C@H](C(C)C)NC(=O)[C@H](CC(C)C)NC(=O)[C@H](CC(N)=O)NC(=O)CNC(=O)[C@H](C)N(C)C(=O)[C@H](C(C)C)NC(=O)[C@H](Cc2ccc(-c3ccccc3)cc2)NC1=O [Compound 1757] ({CH2CO}-FYDWL[Bip]V[NMeA]GNLVSCG-NH2; thioether N-14) was 0.03

Given item Cc1cccc(C[C@@H]2NC(=O)[C@H](CC(=O)O)NC(=O)[C@H](Cc3ccc(OCC(=O)O)cc3)NC(=O)[C@H](CN)NC(=O)CSCC(C(N)=O)NC(=O)[C@H](CO)NC(=O)[C@H](C(C)C)NC(=O)[C@H](CC(C)C)NC(=O)[C@H](CC(N)=O)NC(=O)[C@@H](CC(C)C)NC(=O)[C@H](C)N(C)C(=O)[C@H](C(C)C)NC(=O)[C@H](Cc3ccc(-c4ccccc4)cc3)NC(=O)[C@H](CC(C)C)NC2=O)c1 (stereo partly drawn) [Compound 1597] ({CH2CO}-[Dap]Y(Carboxymethyl)D[Phe(3-Me)]L[Bip]V[NMeA][dL]NLVS[ξC]-NH2; thioether N-14) , the value recorded as its IC50 is 0.05
